experiment: NCI Yeast Anticancer Drug Screen. Data for the rad50 strain (AID 155);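 note: 0% = growth of vehicle-only cultures of the same strain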; settings: S. cerevisiae rad50 strain growth inhibition; at 50.0 µM; stronger effect = higher value
The panel holds about 79,000 compounds, 15% with a hit somewhere; the sample as a whole holds those more often. The source made the active and inactive calls. Cut-off read from the data, not from the text of the source: active = growth inhibition above about 70%; inactive = the rest.
Property measured: growth inhibition

In [3]: df
Out[3]:
                                    molecule    recorded_result
 0                                  Cc1csnn1  -12.7% (inactive)
 1  CCOC(=N)CC(=O)NC(C)c1ccccc1 (configuration not stated)   2.25% (inactive)
 2               Clc1ccc(C=Nc2ccccc2)c(Cl)c1   23.9% (inactive)
 3  CC(=O)O[C@H]1CC[C@@]2(C)C(=CC(=O)[C@H]3[C@@H]4CC[C@H]([C@H](C)CCCC(C)C)[C@@]4(C)CC[C@@H]32)C1   10.8% (inactive)
 4                 O=C(Nc1cccc2ccccc12)OCCBr   6.85% (inactive)
 5  Nc1cn(C2CC(O)C(CO)O2)c(=O)[nH]c1=O (configuration not stated)      0% (inactive)
 6  Cc1ccc(C2=Nn3c(nc4sc5c(c4c3=O)CCCC5)SC2)cc1  -25.7% (inactive)
 7                  CC(C)CC(C)(CC(C)C)C(=O)O   9.95% (inactive)
 8               S=c1[nH]ncn1/N=C/c1ccccc1Cl   23.6% (inactive)
 9          CCCSc1nc2c(=O)n(C)c(=O)[nH]c2n1C  -10.2% (inactive)
10    O=C(N/N=C\c1ccc(Cl)cc1)Nc1ccc2ccccc2c1    2.9% (inactive)
11          CCC(C=NCCBr)(CCC(=O)OC)CCC(=O)OC   -7.9% (inactive)

---

Assay: NCI Yeast Anticancer Drug Screen. Data for the sgs1 mgt1 strain (AID 161);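 note: 0% = growth of cultures given vehicle only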
Conditions: S. cerevisiae sgs1 mgt1 strain, at 50.0 µM, stronger effect = higher value
Protocol: Growth inhibition of yeast strains with defined genetic alterations is measured as a screen for potential anti-cancer activity. Selected strains with alterations in DNA damage repair or cell cycle control were exposed to compounds and growth inhibition was measured relative to vehicle treated controls. The strain used in this assay is sgs1 mgt1
Compounds without any hit were thinned out: in the full panel of roughly 79,000, 15% have a hit.
Property measured: growth inhibition (%)

>>> print(df.to_string())
                                   compound  recorded_result
0  NC(=O)c1csc(NC2OC(CO)C(O)C(O)C2O)n1 (stereo unspecified)             0.05
1    CC(=O)Nc1cc(Cl)cc2c1[nH]c(=O)c1ccccc12               -2
2                       O=C1NCC2(CCCCCC2)O1             13.2
3            COC(=O)c1cc(Cl)c(C(=O)OC)cc1Cl             3.85
4  COc1ccc(N2C(=O)OC3(CCN(Cc4ccccc4)CC3)C2=O)cc1              7.7
5  CCOC(=O)C(CCSC)(CCN(C)Cc1ccccc1)C(=O)OCC             -6.9
